A set of compounds tested on C-X-C chemokine receptor type 4 (Homo sapiens), with measured IC50:
Please state the figure in nM; there is no need to write the unit.

### Prompt Return reported IC50; argument: CC(=O)NCCCNC(=N)NCCCCCCN1C(=O)[C@@H](Cc2ccc(O)cc2)NC(=O)CNC(=O)[C@H](Cc2ccc3ccccc3c2)NC(=O)[C@H](CCCNC(=N)N)NC(=O)[C@H]1C [US20240293587, Compound P2]
### Response 1.7

Let us examine a further case.
### Prompt Return reported IC50; argument: CC(=O)NCc1cccc(CNC(=O)CSC[C@H]2NC(=O)[C@H](Cc3ccc4ccccc4c3)NC(=O)[C@H](CCCNC(=N)N)NC(=O)[C@@H](C)N(CCCCCCNC(=N)N)C(=O)[C@@H](Cc3ccc(O)cc3)NC2=O)c1
### Response 14
